Experiment: BSK_4H_Eotaxin3: BioMAP Diversity Plus: 4H Assay for Eotaxin 3 Biomarker Activity (AID 2283000);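 on Outcome: CCL26 protein level quantified by ELISA in parallel with SRB cytotoxicity check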
Details: primary human endothelial cells (HUVEC); actives raise or lower the signal
Active and inactive are the calls of the source. How the source made its calls: active means hit-call score of the fitted dose curve at least 0.9, where 1 is the maximum; inactive means score below 0.9.
Outcome codes: Y (active), N (inactive)

molecule=O=C(Cl)C(F)(F)C(F)(F)C(F)(F)C(F)(F)C(F)(F)C(F)(F)C(F)(F)F cat=N
molecule=Cc1cnccn1 cat=N
molecule=FC(F)(F)C(F)(F)C(F)(F)C(F)(F)C(F)(F)C(F)(F)CC[Si](Cl)(Cl)Cl cat=N
molecule=O=C1c2c(O)ccc(Nc3ccc(CCO)cc3)c2C(=O)c2c([N+](=O)[O-])ccc(O)c21 cat=Y
molecule=CNS(=O)(=O)C(F)(F)C(F)(F)C(F)(F)C(F)(F)C(F)(F)C(F)(F)C(F)(F)C(F)(F)F cat=N
molecule=OCC(F)(F)C(F)(F)C(F)(F)CO cat=N
molecule=O=C(O)CCC(F)(F)C(F)(F)C(F)(F)C(F)(F)C(F)(F)C(F)(F)C(F)(F)F cat=N
molecule=OC(O)C(F)(F)C(F)(F)F cat=N
molecule=OCC(F)(F)C(F)(F)C(F)(F)C(F)(F)C(F)(F)C(F)(F)CO cat=N
molecule="FC(F)(F)C(F)(F)C(F)(F)CC1CO1 (configuration not stated)" cat=N
molecule=CCOC(C=C(C)CCC=C(C)C)OCC cat=Y
molecule=Cc1ccc(S(=O)(=O)C(I)I)cc1 cat=Y
molecule=O=C(O)C(F)(F)C(F)(F)C(F)(F)OC(F)(C(F)(F)F)C(F)(F)F cat=N
molecule=O=S(=O)(O)CCC(F)(F)C(F)(F)C(F)(F)C(F)(F)C(F)(F)C(F)(F)C(F)(F)C(F)(F)F cat=N
molecule=NC(=O)C(F)(F)C(F)(F)C(F)(F)C(F)(F)C(F)(F)C(F)(F)C(F)(F)F cat=N
molecule="CC(C)CCCC(C)CCO (configuration not stated)" cat=Y
molecule=CCN(CC)c1ccc2c(c1)Oc1cc(N(CC)CC)ccc1C21OC(=O)c2ccccc21 cat=N
